# inhibition at 5 mg/kg per entry
# target: Amine oxidase [flavin-containing] B (Rattus norvegicus)
# Sequence (P19643 whole entry): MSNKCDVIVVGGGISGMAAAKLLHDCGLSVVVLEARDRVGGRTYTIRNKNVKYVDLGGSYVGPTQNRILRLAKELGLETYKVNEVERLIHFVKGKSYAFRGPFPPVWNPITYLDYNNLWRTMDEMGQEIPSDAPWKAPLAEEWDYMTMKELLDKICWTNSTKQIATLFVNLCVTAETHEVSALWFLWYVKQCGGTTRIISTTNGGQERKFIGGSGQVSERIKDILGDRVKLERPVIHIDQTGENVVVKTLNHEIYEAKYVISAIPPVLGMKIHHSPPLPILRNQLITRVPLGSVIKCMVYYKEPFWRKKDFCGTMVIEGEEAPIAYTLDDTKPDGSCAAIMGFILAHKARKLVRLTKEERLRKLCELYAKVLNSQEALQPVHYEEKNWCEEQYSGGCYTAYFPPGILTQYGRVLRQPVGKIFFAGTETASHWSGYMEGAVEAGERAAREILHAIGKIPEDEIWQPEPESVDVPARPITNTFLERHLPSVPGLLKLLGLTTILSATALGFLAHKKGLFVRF
# measurementNotes: Ex vivo inhibitory activity against rat brain monoamine oxidase (MAO) type B at a dose of 5 mg/kg administered orally at 4 hr
# Type: functional, organism-based
# Parameters: dose 5 mg/kg, route oral
# reportedConditions: po
The reply should be a number in %, with the unit left off.

Would you please look over these solved cases?
# inhibition at 5 mg/kg lookup, item `N#CCCn1nnc(-c2ccc(OCc3cccc(Cl)c3)cc2)n1`
63

Field entry: `OCCn1nnc(-c2ccc(OCc3ccccc3)cc2)n1`
63

Field entry: `OCCn1nnc(-c2ccc(OCc3cccc(Cl)c3)cc2)n1`
55

In the following, a different molecule is considered.
# inhibition at 5 mg/kg lookup, item `N#CCCn1nnc(-c2ccc(OCc3ccccc3)cc2)n1`
69

----------
# target: Amine oxidase [flavin-containing] A (Rattus norvegicus)
# Sequence (P21396 whole entry): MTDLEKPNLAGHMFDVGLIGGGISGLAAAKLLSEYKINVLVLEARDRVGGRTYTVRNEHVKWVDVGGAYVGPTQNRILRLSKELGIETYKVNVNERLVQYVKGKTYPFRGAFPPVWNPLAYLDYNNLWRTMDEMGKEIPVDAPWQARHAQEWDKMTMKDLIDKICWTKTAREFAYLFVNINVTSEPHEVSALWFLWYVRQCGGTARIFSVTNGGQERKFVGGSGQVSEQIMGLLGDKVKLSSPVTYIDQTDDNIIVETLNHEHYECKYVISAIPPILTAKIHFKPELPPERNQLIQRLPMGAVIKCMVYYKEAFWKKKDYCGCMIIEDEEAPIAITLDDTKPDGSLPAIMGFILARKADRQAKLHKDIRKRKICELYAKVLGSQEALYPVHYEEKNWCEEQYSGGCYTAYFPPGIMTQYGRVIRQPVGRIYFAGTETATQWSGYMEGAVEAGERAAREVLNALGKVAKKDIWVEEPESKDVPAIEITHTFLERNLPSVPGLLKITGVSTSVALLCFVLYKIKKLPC
readoutLabel: IC50

# IC50 lookup, item `COc1cccc(COc2ccc(-c3nnn(CCO)n3)cc2)c1`
80 µM

Continuing:
# IC50 lookup, item `OCCn1nnc(-c2ccccc2)n1`
> 100 µM

Field entry: `Cc1cccc(COc2ccc(-c3nnn(CCO)n3)cc2)c1`
> 100 µM

Field entry: `COc1ccc(-c2nnn(CCO)n2)cc1`
46 µM

Field entry: `N#CCCn1nnc(-c2ccc(OCc3ccc(Cl)cc3)cc2)n1`
> 100 µM

Field entry: `N#CCCn1nnc(-c2ccncc2)n1`
> 100 µM

Field entry: `OCCn1nnc(-c2ccc(OCc3cccc(Cl)c3)cc2)n1`
58 µM

Field entry: `Cc1cccc(COc2ccc(-c3nnn(CCC#N)n3)cc2)c1`
> 100 µM

Field entry: `OCCn1nnc(-c2ccc(-c3ccccc3)cc2)n1`
11 µM

Field entry: `OCCn1nnc(-c2ccncc2)n1`
> 100 µM

Field entry: `N#CCCn1nnc(-c2ccc(Cl)cc2)n1`
6.5 µM

Field entry: `N#CCCn1nnc(-c2ccc(OCc3ccc(F)cc3)cc2)n1`
> 100 µM

Field entry: `COc1cccc(COc2ccc(-c3nnn(CCC#N)n3)cc2)c1`
> 100 µM

----------
# inhibition at 5 mg/kg per entry
# target: Amine oxidase [flavin-containing] B (Rattus norvegicus)
# measurementNotes: Ex vivo inhibitory activity against rat brain monoamine oxidase (MAO) type B at a dose of 5 mg/kg administered orally at 0.5 hr
# Type: functional, organism-based
# Set-up: dose 5 mg/kg, route oral
# reportedConditions: po
The reply should be a number in %, with the unit left off.

# inhibition at 5 mg/kg lookup, item `N#CCCn1nnc(-c2ccc(OCc3ccccc3)cc2)n1`
76

Field entry: `N#CCCn1nnc(-c2ccc(OCc3cccc(Cl)c3)cc2)n1`
72

Field entry: `OCCn1nnc(-c2ccc(OCc3ccccc3)cc2)n1`
84

Field entry: `OCCn1nnc(-c2ccc(OCc3cccc(Cl)c3)cc2)n1`
69
